Kindly supply the reported TGI values for the records listed here.
# Tested on: SF-268 CNS
# ASSAY COMMENT: NCI tumour cell line growth inhibition, 48 h
One number for each entry, in µM.

Sample answers from the record:
compound=CC(=O)O[C@H]1CC[C@@]2(C)C(=CC[C@@H]3[C@@H]2CC[C@]2(C)c4c(cc(C#N)c(=N)n4C(C)=O)C[C@@H]32)C1 experimental_result=62.7
compound=O=C(O)CCSC(=O)Nc1cccc([N+](=O)[O-])c1 experimental_result=64.8
compound=CSc1ccc(/C=C2\N=C(c3ccccc3)N(c3nc4c(Cl)cc(Cl)cc4s3)C2=O)cc1 experimental_result=86.3

Switching to the query record.
Problem: Give its TGI value. Item: N#C/C(=C/C=C/c1ccccc1)S(=O)c1ccccc1 (configuration not stated)
Solution: 1.94
